These entries and their values trace back to patent US20250170248A1.

SYSTEM: SMARCA2 (Homo sapiens, UniProt P51531)
Sequence (P51531 whole entry): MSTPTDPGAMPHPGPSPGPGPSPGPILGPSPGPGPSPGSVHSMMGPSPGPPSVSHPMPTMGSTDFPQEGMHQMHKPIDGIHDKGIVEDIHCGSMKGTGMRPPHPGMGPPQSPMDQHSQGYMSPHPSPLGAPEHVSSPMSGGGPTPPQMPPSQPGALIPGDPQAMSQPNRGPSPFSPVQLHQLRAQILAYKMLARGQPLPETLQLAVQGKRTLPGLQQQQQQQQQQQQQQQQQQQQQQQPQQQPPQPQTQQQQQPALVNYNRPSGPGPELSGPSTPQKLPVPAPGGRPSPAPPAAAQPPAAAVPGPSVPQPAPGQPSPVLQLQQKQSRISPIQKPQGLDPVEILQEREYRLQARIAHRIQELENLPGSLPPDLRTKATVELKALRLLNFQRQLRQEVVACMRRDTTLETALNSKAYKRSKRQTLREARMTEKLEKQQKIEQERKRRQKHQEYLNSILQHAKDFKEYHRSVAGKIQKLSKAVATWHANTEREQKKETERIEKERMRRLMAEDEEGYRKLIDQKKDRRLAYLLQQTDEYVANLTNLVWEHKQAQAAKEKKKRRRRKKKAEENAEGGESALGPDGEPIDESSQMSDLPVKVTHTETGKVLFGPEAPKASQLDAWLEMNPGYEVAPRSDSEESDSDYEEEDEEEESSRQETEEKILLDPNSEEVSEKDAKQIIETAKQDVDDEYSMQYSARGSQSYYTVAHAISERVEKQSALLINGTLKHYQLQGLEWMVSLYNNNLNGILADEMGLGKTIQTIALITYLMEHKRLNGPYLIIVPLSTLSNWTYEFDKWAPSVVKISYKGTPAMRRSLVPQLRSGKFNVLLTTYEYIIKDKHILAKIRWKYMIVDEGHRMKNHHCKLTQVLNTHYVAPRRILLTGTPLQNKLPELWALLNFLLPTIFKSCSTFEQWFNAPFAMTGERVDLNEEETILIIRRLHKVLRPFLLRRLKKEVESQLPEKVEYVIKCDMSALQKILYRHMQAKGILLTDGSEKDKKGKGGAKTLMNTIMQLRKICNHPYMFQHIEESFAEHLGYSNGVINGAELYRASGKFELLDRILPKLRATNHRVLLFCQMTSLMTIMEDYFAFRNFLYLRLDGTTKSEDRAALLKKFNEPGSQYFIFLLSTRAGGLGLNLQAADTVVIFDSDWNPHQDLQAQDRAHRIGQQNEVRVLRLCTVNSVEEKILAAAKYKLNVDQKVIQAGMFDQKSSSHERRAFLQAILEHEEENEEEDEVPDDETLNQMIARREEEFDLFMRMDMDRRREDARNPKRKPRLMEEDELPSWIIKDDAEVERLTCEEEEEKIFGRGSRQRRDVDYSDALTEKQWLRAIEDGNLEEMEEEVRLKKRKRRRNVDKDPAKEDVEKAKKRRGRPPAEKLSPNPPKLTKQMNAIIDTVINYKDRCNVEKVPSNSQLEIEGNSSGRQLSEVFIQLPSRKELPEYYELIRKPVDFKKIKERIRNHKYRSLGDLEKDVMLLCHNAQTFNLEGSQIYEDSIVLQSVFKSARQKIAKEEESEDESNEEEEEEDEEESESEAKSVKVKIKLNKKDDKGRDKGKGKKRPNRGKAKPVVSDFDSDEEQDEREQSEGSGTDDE
ASSAY_REMARKS: MSD SMARCA2 degradation in A549 cell line
Format: cell-based
PROTOCOL_CONDITIONS: A549, A549 cells, 24 h
VALUE_TYPE: Dmax

Solved cases (3 shown):
COMPOUND	Dmax
C#Cc1ccc(CNC(=O)[C@@H]2C[C@@H](O)CN2C(=O)[C@@H](NC(=O)N2CC3(CC(N4CC5(CC(N6CCC(N7CCc8[nH]c9nnc(-c%10ccccc%10O)cc9c8[C@H]7C)CC6)C5)C4)C3)C2)C(C)(C)C)cc1	> 90%
C#Cc1ccc(CNC(=O)[C@@H]2C[C@@H](O)CN2C(=O)[C@@H](NC(=O)N2CC3(CC(N4CCC(c5cnc(N6CCc7[nH]c8nnc(-c9ccccc9O)cc8c7[C@@H]6C)s5)CC4)C3)C2)C(C)(C)C)cc1	70 to 90%
C#Cc1ccc(CNC(=O)[C@@H]2C[C@@H](O)CN2C(=O)[C@@H](NC(=O)[C@H]2CCC3(CC2)C[C@H](N2CCC(N4CCC(N5CCN6c7cc(-c8ccccc8O)nnc7NC[C@H]6C5)CC4)CC2)C3)C(C)(C)C)cc1 (single isomer, unassigned)	> 90%

Turning now to a further compound:
SMARCA2 (Homo sapiens, UniProt P51531) Dmax of `C#Cc1ccc(CNC(=O)[C@@H]2C[C@@H](O)CN2C(=O)[C@@H](NC(=O)N2CC3(CC(CCN4CCC(c5cnc(N6CCc7[nH]c8nnc(-c9ccccc9O)cc8c7[C@H]6C)nc5)CC4)C3)C2)C(C)(C)C)cc1` is > 90%
